Reference for the values: patent US11083677B2

# METHOD: Evaluation of solubility and gelling ability (critical gelation concentration, sample tube inversion method)
# Type: physicochemical
# TEST PARAMETERS: Water
MEASUREMENT KIND: solubility and gelling ability

Before answering, review these 5 worked examples.
MOLECULE	solubility and gelling ability
CCCCCCCCCCCCCCCCCCNC(=O)CCCO [4HN-STBA, 4-hydroxy-N-stearyl, butyramide]	I
CCCCCCCCNC(=O)CCCO [4HN-OBA, 4-hydroxy-N-octyl, butyramide]	S
O=C(CCCO)NC1CCCCC1 [4HN-CHBA, 4-hydroxy-N-cyclohexyl, butyramide]	S
CCCCCCCC/C=C\CCCCCCCCNC(=O)CCCO [4HN-OLBA, 4-hydroxy-N-oleyl, butyramide]	I
CCCCCCCCCCCCNC(=O)CCCCCO [6HN-LHA, 6-hydroxy-N-lauryl, hexylamide]	I

Proceeding to the next molecule to report its solubility and gelling ability.
I have this molecule here, CCCCC(CC)CNC(=O)CCCO (stereo not drawn) [4HN-EHBA, 4-hydroxy-N-2-ethylhexyl, butyramide] , and I need its recorded solubility and gelling ability.
I

---

# METHOD: Evaluation of solubility and gelling ability (critical gelation concentration, sample tube inversion method)
# Assay type: physicochemical
# TEST PARAMETERS: Glycerin
MEASUREMENT KIND: solubility and gelling ability

Worked cases, answers included:
COMPOUND	RESULT
CCCCCCCCCCCCCCCCCCNC(=O)CCCO [4HN-STBA, 4-hydroxy-N-stearyl, butyramide]	I
CCCCC(CC)CNC(=O)CCCO (centres unmarked) [4HN-EHBA, 4-hydroxy-N-2-ethylhexyl, butyramide]	S
CCCCCCCCCCCCNC(=O)CCCCCO [6HN-LHA, 6-hydroxy-N-lauryl, hexylamide]	I
CCCCCCCC/C=C\CCCCCCCCNC(=O)CCCO [4HN-OLBA, 4-hydroxy-N-oleyl, butyramide]	I

Continue with the compound presented below.
Item CCCCCCCCCCCCCCNC(=O)CCCO [4HN-MBA, 4-hydroxy-N-myristyl, butyramide] has what recorded solubility and gelling ability?
I
